Test system: Caenorhabditis elegans N2
Experiment: mean nematode size ln(EXT) after 48 h, plate-adjusted (DMSO control set to 6) (ln(EXT), control-adjusted); higher = larger nematodes / less growth inhibition
Details: 1 µM; exposure time 48 h
property.measured: mean nematode size ln(EXT) (ln)

Previously resolved entries follow.
{"chemical.string": "Nc1c(Cl)cc([N+](=O)[O-])cc1Cl", "observed.result": 5.9}
{"chemical.string": "COc1cnc(OC)n2nc(NS(=O)(=O)c3c(OCC(F)F)cccc3C(F)(F)F)nc12", "observed.result": 6.06}
{"chemical.string": "CON(C)C(=O)Nc1ccc(Cl)c(Cl)c1", "observed.result": 6.22}
{"chemical.string": "O=C(O)COc1nc(Cl)c(Cl)cc1Cl", "observed.result": 6.1}

Now for a further molecule.
Name the recorded mean nematode size ln(EXT) (ln) of the molecule listed here: CC(C)N(C(=O)COc1nnc(C(F)(F)F)s1)c1ccc(F)cc1
5.94

* * *

Test system: Caenorhabditis elegans N2
Assay: mean nematode size ln(EXT) after 48 h, plate-adjusted (DMSO control set to 6) (ln(EXT), control-adjusted); higher = larger nematodes / less growth inhibition
Settings: 200 µM; exposure time 48 h
property.measured: mean nematode size ln(EXT) (ln)
// return just the number, without any unit appended

{"compound": "O=C(O)c1ccc2c(c1)nc(C(=O)NC1CCN(C3CC3)CC1)n2Cc1cc(-c2ccc(Cl)s2)on1", "property.measured": "mean nematode size ln(EXT) (ln)", "observed.result": 5.86}
{"compound": "FC(F)C(F)(F)OCC(Cn1cncn1)c1ccc(Cl)cc1Cl (stereo not given)", "property.measured": "mean nematode size ln(EXT) (ln)", "observed.result": 4.07}
{"compound": "Cc1oc(-c2ccccc2)nc1CCOc1cccc2c1ccn2CCC(=O)O", "property.measured": "mean nematode size ln(EXT) (ln)", "observed.result": 5.52}

Now for a further compound.
Recall the reported mean nematode size ln(EXT) (ln) of O=C(N[C@H]1CN2CCC1CC2)c1ccc2c(c1)OCCO2 on Caenorhabditis elegans N2 and write it down.
5.67

* * *

System: Caenorhabditis elegans N2
Test: lowest effective concentration for larval growth inhibition (size below effect threshold); higher = less potent
Conditions: exposure time 48 h
Measured lowest effective concentration values are reported for all entries that follow.
Give your result in µM as a bare value.

Previously resolved entries follow.
{"molecule": "O=P(Oc1ccccc1)(Oc1ccccc1)Oc1ccccc1 [Triphenyl phosphate]", "target.under.test": "Caenorhabditis elegans N2", "property.measured": "lowest effective concentration", "unit": "µM", "observed.result": 1}
{"molecule": "O=P(OC(CCl)CCl)(OC(CCl)CCl)OC(CCl)CCl [Tris(1,3-dichloro-2-propyl) phosphate (TDCPP)]", "target.under.test": "Caenorhabditis elegans N2", "property.measured": "lowest effective concentration", "unit": "µM", "observed.result": 50}
{"molecule": "CC/C(=C(\\c1ccccc1)c1ccc(OCCN(C)C)cc1)c1ccccc1 [Tamoxifen]", "target.under.test": "Caenorhabditis elegans N2", "property.measured": "lowest effective concentration", "unit": "µM", "observed.result": 50}

Name the recorded lowest effective concentration of the molecule listed here: O=C(O)C(O)C(O)C(=O)O (stereo not given) [Tartaric acid]
200

Name the recorded lowest effective concentration of the molecule listed here: O=C(Oc1ccc(Br)cc1)N1CCN2CCC1CC2 [4-bromophenyl 1,4-diazabicyclo[3.2.2]nonane-4-carboxylate]
50

* * *

System: Caenorhabditis elegans N2
Experiment: mean nematode size ln(EXT) after 48 h, plate-adjusted (DMSO control set to 6) (ln(EXT), control-adjusted); higher = larger nematodes / less growth inhibition
Details: 10 µM; exposure time 48 h
Measured mean nematode size ln(EXT) (ln) values are reported for all entries that follow.
// return just the number, without any unit appended

Previously resolved entries follow.
{"compound": "CCCCOC(=O)c1ccccc1C(=O)OCCCC [Dibutyl phthalate]", "mean nematode size ln(EXT) (ln)": 5.99}
{"compound": "Nc1nc(N)c2nc(CNc3ccc(C(=O)NC(CCC(=O)O)C(=O)O)cc3)cnc2n1 (stereo not given)", "mean nematode size ln(EXT) (ln)": 5.86}
{"compound": "Cc1nc(N(C)C)nc(OC(=O)N(C)C)c1C", "mean nematode size ln(EXT) (ln)": 5.99}
{"compound": "CCOP(=S)(OCC)SCSCC [Phorate]", "mean nematode size ln(EXT) (ln)": 5.76}

Recall the reported mean nematode size ln(EXT) (ln) of CC(C)c1cccc(C(C)C)c1NC(=O)NS(=O)(=O)c1cc(C(C)(C)O)co1 on Caenorhabditis elegans N2 and write it down.
5.91

* * *

Measured mean nematode size ln(EXT) (ln) values are reported for all entries that follow.
Test system: Caenorhabditis elegans N2
Assay: mean nematode size ln(EXT) after 48 h, plate-adjusted (DMSO control set to 6) (ln(EXT), control-adjusted); higher = larger nematodes / less growth inhibition
Conditions: 0.5 µM; exposure time 48 h
Structures can show the parent of a compound that is named as a salt.
// return just the number, without any unit appended

Previously resolved entries follow.
{"molecule": "Nc1cccc2c(N)cccc12 [1,5-Diaminonaphthalene]", "observed.result": 5.81}
{"molecule": "Nc1nc(=O)c2nc(CNc3ccc(C(=O)N[C@@H](CCC(=O)O)C(=O)O)cc3)cnc2[nH]1 [Folic acid]", "observed.result": 6.04}
{"molecule": "O=C(OCCCCCOC(=O)c1ccccc1)c1ccccc1 [1,5-Pentanediol,1,5-dibenzoate]", "observed.result": 5.88}
{"molecule": "O=[N+]([O-])c1ccc(Cl)cc1 [1-Chloro-4-nitrobenzene]", "observed.result": 5.94}

Now for a further molecule.
Name the recorded mean nematode size ln(EXT) (ln) of the molecule listed here: CC(C)(C)c1cc(/C=C2\SC(=N)NC2=O)cc(C(C)(C)C)c1O [Darbufelone mesylate]
5.59

* * *

Test system: Caenorhabditis elegans N2
Experiment: mean nematode size ln(EXT) after 48 h, plate-adjusted (DMSO control set to 6) (ln(EXT), control-adjusted); higher = larger nematodes / less growth inhibition
Conditions: 200 µM; exposure time 48 h
mean nematode size ln(EXT) (ln) below 4 gives Not satisfied; mean nematode size ln(EXT) (ln) at or above it gives Satisfied.

Solved cases (2 shown):
{"compound": "CCC(=O)Nc1ccc(Cl)c(Cl)c1", "qualitative.label": "Satisfied"}
{"compound": "Cc1nc(-c2ccc3c(c2)CCN(CCC2CCC(NC(=O)/C=C/c4ccc(F)cc4)CC2)CC3)no1 (stereo unspecified)", "qualitative.label": "Satisfied"}

# check: mean nematode size ln(EXT) (ln) of O=C1c2c(O)cccc2Cc2cccc(O)c21 is greater than or equal to 4
Satisfied

# check: mean nematode size ln(EXT) (ln) of CCOC(=O)NCCOc1ccc(Oc2ccccc2)cc1 is greater than or equal to 4
Not satisfied

# check: mean nematode size ln(EXT) (ln) of OCC1CO1 (stereo unspecified) is greater than or equal to 4
Satisfied

# check: mean nematode size ln(EXT) (ln) of N#CSCSc1nc2ccccc2s1 is greater than or equal to 4
Not satisfied

* * *

System: Caenorhabditis elegans N2
Test: mean nematode size ln(EXT) after 48 h, plate-adjusted (DMSO control set to 6) (ln(EXT), control-adjusted); higher = larger nematodes / less growth inhibition
Details: 100 µM; exposure time 48 h
Measured mean nematode size ln(EXT) (ln) values are reported for all entries that follow.
// return just the number, without any unit appended

Previously resolved entries follow.
{"compound": "CCCCC(CC)COC(=O)c1ccc(C(=O)OCC(CC)CCCC)c(C(=O)OCC(CC)CCCC)c1 (stereo not given) [Tris(2-ethylhexyl)trimellitate]", "mean nematode size ln(EXT) (ln)": 5.87}
{"compound": "CCCCCCCCCCCCCCCCCC(=O)O", "mean nematode size ln(EXT) (ln)": 5.85}
{"compound": "CCNc1nc(Cl)nc(NC(C)(C)C)n1", "mean nematode size ln(EXT) (ln)": 5.58}
{"compound": "C=CC1(C)OC(=O)N(c2cc(Cl)cc(Cl)c2)C1=O (stereo not given)", "mean nematode size ln(EXT) (ln)": 3.11}

Now for a further compound.
Name the recorded mean nematode size ln(EXT) (ln) of the compound listed here: Cc1cc2c3c(c1)C(c1ccccc1)=N[C@@H](NC(=O)c1ccncc1)C(=O)N3CC2
5.83

* * *

Measured mean nematode size ln(EXT) (ln) values are reported for all entries that follow.
Tested on: Caenorhabditis elegans N2
Assay: mean nematode size ln(EXT) after 48 h, plate-adjusted (DMSO control set to 6) (ln(EXT), control-adjusted); higher = larger nematodes / less growth inhibition
Settings: 50 µM; exposure time 48 h
// return just the number, without any unit appended

Previously resolved entries follow.
{"compound": "Nc1cnn(-c2ccccc2)c(=O)c1Cl", "property.measured": "mean nematode size ln(EXT) (ln)", "observed.result": 5.44}
{"compound": "O=[N+]([O-])/N=C1\\NCCN1Cc1ccc(Cl)nc1", "property.measured": "mean nematode size ln(EXT) (ln)", "observed.result": 5.96}
{"compound": "CC(C)C(=O)OCC(C)(C)C(OC(=O)C(C)C)C(C)C (stereo not given) [2,2,4-Trimethyl-1,3-pentanediol diisobutyrate]", "property.measured": "mean nematode size ln(EXT) (ln)", "observed.result": 5.99}

Name the recorded mean nematode size ln(EXT) (ln) of the compound listed here: CCc1ccc(C(=O)NN(C(=O)c2cc(C)cc(C)c2)C(C)(C)C)cc1 [Tebufenozide]
5.96

Name the recorded mean nematode size ln(EXT) (ln) of the compound listed here: CCNc1nc(N)nc(Cl)n1
5.95

Name the recorded mean nematode size ln(EXT) (ln) of the compound listed here: COP(=O)(OC)OC=C(Cl)Cl
5.05

Name the recorded mean nematode size ln(EXT) (ln) of the compound listed here: CN/C(=N\[N+](=O)[O-])NCc1cnc(Cl)s1
6.05

Attribution: the supplement of paper PMC4858399
